Recorded pIC50 by entry
- tgt: human TLR9 (Homo sapiens, UniProt Q9NR96)
- experimentNotes: TLR9 inhibition reporter assay (HEK-Blue SEAP)
- conditionSummary: HEK-Blue cells overexpressing human TLR9, ODN2006 5 nM, 22 hour incubation
Scale: pIC50 equals -log10([C]), with [C] in mol/L.

The cases that follow already have their pIC50 on record.
CCCN1CCC(n2c(=O)[nH]c3cc(-c4cc(OC)c5ncnn5c4)c(C(C)C)cc32)CC1
4.93
COc1cc(-c2cc3[nH]c(=O)n(C4CCN(C(C)C)CC4)c3cc2C)cn2ncnc12
6.45
COc1cc(-c2ccc3c(c2)[nH]c(=O)n3C2CCN(CC3CC3)CC2)cn2ncnc12
5.41

Query for human TLR9 (Homo sapiens, UniProt Q9NR96): what pIC50 does the record show for COc1cc(-c2cc3[nH]c(=O)n([C@H]4CC[C@@H](NC5CCOCC5)CC4)c3cc2C(C)C)cn2ncnc12 ?
4.67

Query for human TLR9 (Homo sapiens, UniProt Q9NR96): what pIC50 does the record show for Cc1c(-c2cc3[nH]c(=O)n([C@@H]4CCCNC4)c3cc2C(C)C)cn2ncnc2c1C ?
4.93

Query for human TLR9 (Homo sapiens, UniProt Q9NR96): what pIC50 does the record show for COc1cc(-c2cc3[nH]c(=O)n([C@@H]4CCCN(CC(C)(C)C)C4)c3cc2C(C)C)cn2ncnc12 ?
4.88

Query for human TLR9 (Homo sapiens, UniProt Q9NR96): what pIC50 does the record show for COc1c(C)c(-c2cc3[nH]c(=O)n(C4CCC(N5CCCOCC5)CC4)c3cc2C(C)C)cn2ncnc12 (single isomer, unassigned) [Example 261] ?
4.73

Query for human TLR9 (Homo sapiens, UniProt Q9NR96): what pIC50 does the record show for COCCN1CCC[C@@H](n2c(=O)[nH]c3cc(-c4cc(OC)c5ncnn5c4)c(C(C)C)cc32)C1 [Example 226] ?
4.85

Query for human TLR9 (Homo sapiens, UniProt Q9NR96): what pIC50 does the record show for CCCN1CCC[C@@H](n2c(=O)[nH]c3cc(-c4cc(OC)c5ncnn5c4)c(C(C)C)cc32)C1 ?
5.03

Query for human TLR9 (Homo sapiens, UniProt Q9NR96): what pIC50 does the record show for COc1cc(-c2cc3[nH]c(=O)n([C@@H]4CCCN(CC5CC5)C4)c3cc2C)cn2ncnc12 ?
5.26

Query for human TLR9 (Homo sapiens, UniProt Q9NR96): what pIC50 does the record show for COc1cc(-c2cc3[nH]c(=O)n([C@@H]4CCCN(C5CCOCC5)C4)c3cc2C(C)C)cn2ncnc12 ?
4.99

Query for human TLR9 (Homo sapiens, UniProt Q9NR96): what pIC50 does the record show for CCN(CC)[C@H]1CC[C@@H](n2c(=O)[nH]c3cc(-c4cc(C)c5ncnn5c4)c(C)cc32)CC1 ?
5.47

----------
- tgt: human TLR9 (Homo sapiens, UniProt Q9NR96)
- experimentNotes: TLR9 inhibition reporter assay (HEK-Blue SEAP)
- conditionSummary: HEK-Blue cells overexpressing human TLR9, ODN2006 5 nM, 22 hour incubation
endpointName: pIC50
Scale: pIC50 equals -log10([C]), with [C] in mol/L.

The cases that follow already have their pIC50 on record.
Cc1cc2c(cc1-c1cc(C)c3ncnn3c1)[nH]c(=O)n2C1CCN(C)CC1
5.33
COc1cc(-c2cc3[nH]c(=O)n([C@H]4CC[C@@H](NCC5CC5)CC4)c3cc2C)cn2ncnc12
5.18

Quick check: pIC50 of CCc1cc2c(cc1-c1cc(OC)c3ncnn3c1)[nH]c(=O)n2[C@H]1CC[C@@H](NC2COC2)CC1 ?
4.70

Quick check: pIC50 of CCC(C)N1CCC[C@@H](n2c(=O)[nH]c3cc(-c4cc(C)c5ncnn5c4)c(C)cc32)C1 (stereo partly shown) ?
4.97

Quick check: pIC50 of COCCN1CCC[C@@H](n2c(=O)[nH]c3cc(-c4cc(OC)c5ncnn5c4)c(C(C)C)cc32)C1 (single isomer, unassigned) [Example 225] ?
4.47

Quick check: pIC50 of COc1cc(-c2cc3[nH]c(=O)n([C@H]4CC[C@@H](NCC5CCCCC5)CC4)c3cc2C)cn2ncnc12 ?
5.69

----------
- tgt: human TLR9 (Homo sapiens)
- experimentNotes: TLR9 inhibition reporter assay (HEK-Blue SEAP)
- conditionSummary: HEK-Blue cells overexpressing human TLR9, ODN2006 5 nM, 22 hour incubation
endpointName: IC50 (µM)
Return type: number; implicit unit µM.

The cases that follow already have their IC50 on record.
COc1cc(-c2cc3[nH]c(=O)n([C@@H]4CCCN(C5CCCOC5)C4)c3cc2C(C)C)cn2ncnc12 (single isomer, unassigned) [Example 218]
24.2
COc1cc(-c2cc3[nH]c(=O)n([C@@H]4CCCN(CC5CCCC5)C4)c3cc2C(C)C)cn2ncnc12
2.98
COc1cc(-c2cc3[nH]c(=O)n([C@H]4CC[C@H](N(C)C)CC4)c3cc2C(C)C)cn2ncnc12
23
COc1cc(-c2cc3[nH]c(=O)n([C@@H]4CCCN(CCC(C)(C)C)C4)c3cc2C(C)C)cn2ncnc12
2.36
Cc1cc2c(cc1-c1cc(C)c3ncnn3c1)[nH]c(=O)n2C1CCN(C(C)C)CC1
5.56
CCC(CC)CN1CCC(n2c(=O)[nH]c3cc(-c4cc(OC)c5ncnn5c4)ccc32)CC1
2.78

Quick check: IC50 of CCCN1CCC(n2c(=O)[nH]c3cc(-c4cc(OC)c5ncnn5c4)ccc32)CC1 ?
1.71

Quick check: IC50 of Cc1c(-c2cc3[nH]c(=O)n(C4CCC(N5CC(F)C5)CC4)c3cc2C(C)C)cn2ncnc2c1C (stereo not drawn) [Example 279] ?
10.8

Quick check: IC50 of COc1cc(-c2cc3[nH]c(=O)n([C@H]4CC[C@@H](NC(C)C)CC4)c3cc2C(C)C)cn2ncnc12 ?
16.6

Quick check: IC50 of CCCN[C@H]1CC[C@@H](n2c(=O)[nH]c3cc(-c4cc(OC)c5ncnn5c4)c(C)cc32)CC1 ?
5.49

Quick check: IC50 of Cc1cc2c(cc1-c1cc(C)c3ncnn3c1)[nH]c(=O)n2[C@H]1CCCN(CC(N)=O)C1 ?
21.1

Quick check: IC50 of Cc1cc2c(cc1-c1cc(C)c3ncnn3c1)[nH]c(=O)n2[C@H]1CCCN(C)C1 ?
9.55

Quick check: IC50 of COc1cc(-c2cc3[nH]c(=O)n([C@H]4CC[C@H](NC5CCN(C(C)C)CC5)CC4)c3cc2C(C)C)cn2ncnc12 ?
4.63

Quick check: IC50 of CCN[C@H]1CC[C@@H](n2c(=O)[nH]c3cc(-c4cc(OC)c5ncnn5c4)c(C)cc32)CC1 ?
10

----------
Recorded log10 of IC50 by entry
- tgt: human TLR9 (Homo sapiens, UniProt Q9NR96)
- Sequence (Q9NR96 26-1032): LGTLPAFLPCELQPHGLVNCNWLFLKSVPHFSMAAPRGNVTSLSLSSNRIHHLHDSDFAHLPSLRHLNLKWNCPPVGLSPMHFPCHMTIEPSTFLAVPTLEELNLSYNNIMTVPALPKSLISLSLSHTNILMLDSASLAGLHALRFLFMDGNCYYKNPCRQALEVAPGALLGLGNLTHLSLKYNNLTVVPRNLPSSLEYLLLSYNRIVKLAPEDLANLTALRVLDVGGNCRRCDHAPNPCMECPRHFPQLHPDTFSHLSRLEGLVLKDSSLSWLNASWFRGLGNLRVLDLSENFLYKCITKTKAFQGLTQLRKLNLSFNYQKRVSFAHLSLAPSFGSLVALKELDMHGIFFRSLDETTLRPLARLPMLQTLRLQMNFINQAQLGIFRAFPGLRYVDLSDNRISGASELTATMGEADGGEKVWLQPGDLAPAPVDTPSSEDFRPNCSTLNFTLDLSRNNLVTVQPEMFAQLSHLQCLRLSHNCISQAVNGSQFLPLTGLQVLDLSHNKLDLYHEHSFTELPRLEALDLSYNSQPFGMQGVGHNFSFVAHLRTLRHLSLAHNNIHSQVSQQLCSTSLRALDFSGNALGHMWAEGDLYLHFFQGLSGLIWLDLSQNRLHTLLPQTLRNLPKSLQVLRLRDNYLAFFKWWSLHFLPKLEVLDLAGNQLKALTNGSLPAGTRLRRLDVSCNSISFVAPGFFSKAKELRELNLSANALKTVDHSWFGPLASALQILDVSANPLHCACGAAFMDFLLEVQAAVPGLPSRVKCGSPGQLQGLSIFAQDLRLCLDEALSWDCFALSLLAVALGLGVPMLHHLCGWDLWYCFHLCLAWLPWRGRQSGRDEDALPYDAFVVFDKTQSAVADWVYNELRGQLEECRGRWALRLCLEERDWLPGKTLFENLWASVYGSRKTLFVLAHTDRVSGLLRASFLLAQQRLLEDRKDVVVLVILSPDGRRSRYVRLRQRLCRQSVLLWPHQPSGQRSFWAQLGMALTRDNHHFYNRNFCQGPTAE
- experimentNotes: TLR9 inhibition reporter assay (HEK-Blue SEAP)
- conditionSummary: HEK-Blue cells overexpressing human TLR9, ODN2006 5 nM, 22 hour incubation
All values: base-10 log of IC50 in µM.

The cases that follow already have their log10 of IC50 on record.
COc1cc(-c2cc3[nH]c(=O)n([C@H]4CCCN(C5CCC5)C4)c3cc2C(C)C)cn2ncnc12
1.10
COc1cc(-c2cc3[nH]c(=O)n(C4CCC(N5CCC(S(C)(=O)=O)C5)CC4)c3cc2C(C)C)cn2ncnc12 (single isomer, unassigned) [Example 288]
1.68
Cc1cc2c(cc1-c1cc(C)c3ncnn3c1)[nH]c(=O)n2[C@H]1CC[C@@H](N(C)C)CC1
1.21

Quick check: log10 of IC50 of Cc1cc(-c2ccc3c(c2)[nH]c(=O)n3C2CCNCC2)cn2ncnc12 ?
-0.46

Quick check: log10 of IC50 of COc1cc(-c2cc3[nH]c(=O)n([C@@H]4CCCN(C5CCCOC5)C4)c3cc2C(C)C)cn2ncnc12 (single isomer, unassigned) [Example 219] ?
1.40
